Quick record of Ki values for Bcl-XL protein (Homo sapiens).
Readout kind: Ki

[[record]]
molecule = "CC1(C)CCC(CN2CCN(c3ccc(C(=O)NS(=O)(=O)c4ccc(N[C@H](CCN5CCOCC5)CSc5ccccc5)c(S(=O)(=O)C(F)(F)F)c4)cc3)CC2)=C(c2ccc(Cl)cc2)C1 [Example 24]"
reported_measurement = "≤ 1 nM"

[[record]]
molecule = "CC1(C)CCC(CN2CCN(c3ccc(C(=O)NS(=O)(=O)c4ccc(N[C@H](CCN5CCCC5)CSc5ccccc5)c(S(=O)(=O)C(F)(F)Cl)c4)cc3)CC2)=C(c2ccc(Cl)cc2)C1 [Example 31]"
reported_measurement = "≤ 1 nM"

[[record]]
molecule = "O=C(NS(=O)(=O)c1ccc(N[C@H](CCN2CCCC2)CSc2ccccc2)c(S(=O)(=O)C(F)(F)Cl)c1)c1ccc(N2CCN(CC3=C(c4ccc(Cl)cc4)CCCCC3)CC2)cc1 [Example 32]"
reported_measurement = "≤ 1 nM"


###

System: NCI-H146 human small cell lung carcinoma cells
Assay details: Cellular efficacy in human tumor cell line (MTS viability assay)
Type: cell-based
Cond: NCI-H146; 10% human serum, 48 hours; Table 1; read-out: NCI-H146 Cellular Efficacy EC50
pEC50: −log10 of the molar value.
Readout kind: pEC50

[[record]]
compound = "CC(C)N(C)CC[C@H](CSc1ccccc1)Nc1ccc(S(=O)(=O)NC(=O)c2ccc(N3CCN(CC4=C(c5ccc(Cl)cc5)CC(C)(C)CC4)CC3)cc2)cc1S(=O)(=O)C(F)(F)F [Example 14]"
reported_measurement = 7.51

[[record]]
compound = "O=C(NS(=O)(=O)c1ccc(N[C@H](CCN2CCCOCC2)CSc2ccccc2)c(S(=O)(=O)C(F)(F)F)c1)c1ccc(N2CCN(CC3=C(c4ccc(Cl)cc4)CCCC3)CC2)cc1 [Example 15]"
reported_measurement = 8.00

[[record]]
compound = "CC1(C)CCC(CN2CCN(c3ccc(C(=O)NS(=O)(=O)c4ccc(N[C@H](CCN5CCCC5)CSc5ccccc5)c(S(=O)(=O)C(F)(F)F)c4)cc3)CC2)=C(c2ccc(Cl)cc2)C1 [Example 34]"
reported_measurement = 7.70

[[record]]
compound = "O=C(NS(=O)(=O)c1ccc(N[C@H](CCN2CCCCCC2)CSc2ccccc2)c(S(=O)(=O)C(F)(F)F)c1)c1ccc(N2CCN(CC3=C(c4ccc(Cl)cc4)CCCC3)CC2)cc1 [Example 16]"
reported_measurement = 7.43

[[record]]
compound = "CC1(C)CCC(c2ccc(Cl)cc2)=C(CN2CCN(c3ccc(C(=O)NS(=O)(=O)c4ccc(N[C@H](CCN5CCCC5)CSc5ccccc5)c(S(=O)(=O)C(F)(F)Cl)c4)cc3)CC2)C1 [Example 30]"
reported_measurement = 7.50

[[record]]
compound = "CC1(C)CCC(c2ccc(Cl)cc2)=C(CN2CCN(c3ccc(C(=O)NS(=O)(=O)c4ccc(N[C@H](CCN5CC6CC5CO6)CSc5ccccc5)c(S(=O)(=O)C(F)(F)F)c4)cc3)CC2)C1 (stereo partly shown) [Example 10]"
reported_measurement = 7.47

[[record]]
compound = "O=C(NS(=O)(=O)c1ccc(N[C@H](CCN2CC3CC2CO3)CSc2ccccc2)c(S(=O)(=O)C(F)(F)F)c1)c1ccc(N2CCN(CC3=C(c4ccc(Cl)cc4)CCCC3)CC2)cc1 (stereo partly shown) [Example 9]"
reported_measurement = 7.86

[[record]]
compound = "CN(C)CC[C@H](CSc1ccccc1)Nc1ccc(S(=O)(=O)NC(=O)c2ccc(N3CCN(Cc4ccccc4-c4ccc(Cl)cc4)CC3)cc2)cc1S(=O)(=O)C(F)(F)F [Example 38]"
reported_measurement = 7.40

[[record]]
compound = "CC1(C)CCC(c2ccc(Cl)cc2)=C(CN2CCN(c3ccc(C(=O)NS(=O)(=O)c4ccc(N[C@H](CCN5CCOCC5)CSc5ccccc5)c(S(=O)(=O)C(F)(F)F)c4)cc3)CC2)C1 [Example 1]"
reported_measurement = 7.05

[[record]]
compound = "O=C(NS(=O)(=O)c1ccc(N[C@H](CCN2C[C@@H]3C[C@H]2CO3)CSc2ccccc2)c(S(=O)(=O)C(F)(F)Cl)c1)c1ccc(N2CCN(CC3=C(c4ccc(Cl)cc4)CCCC3)CC2)cc1 [Example 6]"
reported_measurement = 9.00


###

Test system: NCI-H146 human small cell lung carcinoma cells
Assay details: Cellular efficacy in human tumor cell line (MTS viability assay)
Assay type: cell-based
Cond: NCI-H146; 10% human serum, 48 hours; Table 3; read-out: NCI-H146 Cellular Efficacy H146 EC50
Readout kind: EC50 (nM)

[[record]]
query_smiles = "CN(C)CC[C@H](CSc1ccccc1)Nc1ccc(S(=O)(=O)NC(=O)c2ccc(N3CCN(CC4=C(c5ccc(Cl)cc5)CCCC4)CC3)cc2)cc1S(=O)(=O)C(F)(F)Cl"
readout_kind = "EC50"
reported_measurement = 15

[[record]]
query_smiles = "O=C(NS(=O)(=O)c1ccc(N[C@H](CCN2C3CCC2CC3)CSc2ccccc2)c(S(=O)(=O)C(F)(F)F)c1)c1ccc(N2CCN(CC3=C(c4ccc(Cl)cc4)CCCC3)CC2)cc1"
readout_kind = "EC50"
reported_measurement = 21

[[record]]
query_smiles = "O=C(NS(=O)(=O)c1ccc(N[C@H](CCN2CCOCC2)CSc2ccccc2)c(S(=O)(=O)C(F)(F)Cl)c1)c1ccc(N2CCN(CC3=C(c4ccc(Cl)cc4)CCCC3)CC2)cc1"
readout_kind = "EC50"
reported_measurement = 29


###

Test system: NCI-H146 human small cell lung carcinoma cells
Assay details: Cellular efficacy in human tumor cell line (MTS viability assay)
Type: cell-based
Cond: NCI-H146; 10% human serum, 48 hours; Table 1; read-out: NCI-H146 Cellular Efficacy EC50
pEC50: −log10 of the molar value.
Readout kind: pEC50

[[record]]
query_smiles = "CN(C)CC[C@H](CSc1ccccc1)Nc1ccc(S(=O)(=O)NC(=O)c2ccc(N3CCN(CC4=C(c5ccc(Cl)cc5)CCC(C)(C)C4)CC3)cc2)cc1S(=O)(=O)C(F)(F)F"
readout_kind = "pEC50"
reported_measurement = 7.56

[[record]]
query_smiles = "O=C(NS(=O)(=O)c1ccc(N[C@H](CCN2CCCC2)CSc2ccccc2)c(S(=O)(=O)C(F)(F)F)c1)c1ccc(N2CCN(CC3=C(c4ccc(Cl)cc4)CCCCC3)CC2)cc1"
readout_kind = "pEC50"
reported_measurement = 7.53

[[record]]
query_smiles = "O=C(NS(=O)(=O)c1ccc(N[C@H](CCN2CCCC2)CSc2ccccc2)c(S(=O)(=O)C(F)(F)F)c1)c1ccc(N2CCN(CC3=C(c4ccc(Cl)cc4)CCCC3)CC2)cc1"
readout_kind = "pEC50"
reported_measurement = 7.73


###

In this section, each of the molecules is paired with its reported AUC(0-inf).
Assay details: Pharmacokinetic evaluation in rat
Assay type: in vivo
Cond: male, Sprague-Dawley, plasma, single 5 mg/kg oral dose, Table 1, read-out: Pharmacokinetic area under the plasma concentration Curve (rat) AUC0-∞
Readout kind: AUC(0-inf)

[[record]]
molecule = "CC1(C)CCC(c2ccc(Cl)cc2)=C(CN2CCN(c3ccc(C(=O)NS(=O)(=O)c4ccc(N[C@H](CCN5CCOCC5)CSc5ccccc5)c(S(=O)(=O)C(F)(F)Cl)c4)cc3)CC2)C1"
readout_kind = "AUC(0-inf)"
reported_measurement = "7.12 µM·h"

[[record]]
molecule = "CN(C)CC[C@H](CSc1ccccc1)Nc1ccc(S(=O)(=O)NC(=O)c2ccc(N3CCN(CC4=C(c5ccc(Cl)cc5)CC(C)(C)CC4)CC3)cc2)cc1S(=O)(=O)C(F)(F)F"
readout_kind = "AUC(0-inf)"
reported_measurement = "7.3 µM·h"

[[record]]
molecule = "O=C(NS(=O)(=O)c1ccc(N[C@H](CCN2CC3CC2CO3)CSc2ccccc2)c(S(=O)(=O)C(F)(F)F)c1)c1ccc(N2CCN(CC3=C(c4ccc(Cl)cc4)CCCC3)CC2)cc1 (stereo partly shown)"
readout_kind = "AUC(0-inf)"
reported_measurement = "1.88 µM·h"

[[record]]
molecule = "CC(C)N(C)CC[C@H](CSc1ccccc1)Nc1ccc(S(=O)(=O)NC(=O)c2ccc(N3CCN(CC4=C(c5ccc(Cl)cc5)CCCCC4)CC3)cc2)cc1S(=O)(=O)C(F)(F)F"
readout_kind = "AUC(0-inf)"
reported_measurement = "2.22 µM·h"

[[record]]
molecule = "CC(C)N(C)CC[C@H](CSc1ccccc1)Nc1ccc(S(=O)(=O)NC(=O)c2ccc(N3CCN(CC4=C(c5ccc(Cl)cc5)CCCC4)CC3)cc2)cc1S(=O)(=O)C(F)(F)F"
readout_kind = "AUC(0-inf)"
reported_measurement = "3.01 µM·h"

[[record]]
molecule = "O=C(NS(=O)(=O)c1ccc(N[C@H](CCN2CC3CC2CO3)CSc2ccccc2)c(S(=O)(=O)C(F)(F)F)c1)c1ccc(N2CCN(CC3=C(c4ccc(Cl)cc4)CCCCC3)CC2)cc1 (stereo partly shown)"
readout_kind = "AUC(0-inf)"
reported_measurement = "2.07 µM·h"

[[record]]
molecule = "O=C(NS(=O)(=O)c1ccc(N[C@H](CCN2CCCC2)CSc2ccccc2)c(S(=O)(=O)C(F)(F)Cl)c1)c1ccc(N2CCN(CC3=C(c4ccc(Cl)cc4)CCCC3)CC2)cc1"
readout_kind = "AUC(0-inf)"
reported_measurement = "1.26 µM·h"

[[record]]
molecule = "O=C(NS(=O)(=O)c1ccc(N[C@H](CCN2C[C@@H]3C[C@H]2CO3)CSc2ccccc2)c(S(=O)(=O)C(F)(F)Cl)c1)c1ccc(N2CCN(CC3=C(c4ccc(Cl)cc4)CCCC3)CC2)cc1"
readout_kind = "AUC(0-inf)"
reported_measurement = "0.91 µM·h"

[[record]]
molecule = "CC1(C)CCC(c2ccc(Cl)cc2)=C(CN2CCN(c3ccc(C(=O)NS(=O)(=O)c4ccc(N[C@H](CCN5CCCC5)CSc5ccccc5)c(S(=O)(=O)C(F)(F)Cl)c4)cc3)CC2)C1"
readout_kind = "AUC(0-inf)"
reported_measurement = "3.39 µM·h"

[[record]]
molecule = "CC(C)N(C)CC[C@H](CSc1ccccc1)Nc1ccc(S(=O)(=O)NC(=O)c2ccc(N3CCN(CC4=C(c5ccc(Cl)cc5)CC(C)(C)CC4)CC3)cc2)cc1S(=O)(=O)C(F)(F)F"
readout_kind = "AUC(0-inf)"
reported_measurement = "3.42 µM·h"


The origin of these recorded values is patent US8624027B2.
